Kindly supply the reported T 1/2 values for the records listed here.
- target_desc: T1, hPRLR.mFc (soluble dimeric human PRLR) (human)
- T1 construct: dimeric PRLR construct
- T1 chain: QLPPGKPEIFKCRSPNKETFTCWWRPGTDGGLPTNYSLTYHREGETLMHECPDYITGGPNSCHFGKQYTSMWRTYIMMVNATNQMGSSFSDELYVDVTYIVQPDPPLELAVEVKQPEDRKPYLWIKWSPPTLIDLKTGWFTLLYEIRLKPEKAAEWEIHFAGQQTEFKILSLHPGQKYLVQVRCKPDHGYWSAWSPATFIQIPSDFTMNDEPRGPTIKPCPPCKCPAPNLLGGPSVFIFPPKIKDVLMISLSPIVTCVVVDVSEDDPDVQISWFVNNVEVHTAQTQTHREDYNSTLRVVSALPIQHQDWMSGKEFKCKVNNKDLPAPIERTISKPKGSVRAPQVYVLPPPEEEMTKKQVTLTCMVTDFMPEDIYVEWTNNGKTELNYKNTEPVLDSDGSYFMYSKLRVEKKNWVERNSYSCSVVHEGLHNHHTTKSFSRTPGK
- assay_remarks: SPR (Biacore), antibody capture, 37 C
Numbers only, in h.

Here is how some binders turned out for T 1/2.
binder: H1H6800P (antibody, human IgG1, V domains shown, human IgG1 Fc (H1H)) VH: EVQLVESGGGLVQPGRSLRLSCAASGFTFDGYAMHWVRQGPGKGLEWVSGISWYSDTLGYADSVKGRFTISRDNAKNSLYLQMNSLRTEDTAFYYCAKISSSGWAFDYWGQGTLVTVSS VL: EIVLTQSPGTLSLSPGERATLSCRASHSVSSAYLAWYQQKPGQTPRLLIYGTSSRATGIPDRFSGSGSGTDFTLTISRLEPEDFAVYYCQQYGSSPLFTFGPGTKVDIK
T 1/2 [h]: 1.32
--
binder: H1H6966N (antibody, human IgG1, V domains shown, also called H2M6966N) VH: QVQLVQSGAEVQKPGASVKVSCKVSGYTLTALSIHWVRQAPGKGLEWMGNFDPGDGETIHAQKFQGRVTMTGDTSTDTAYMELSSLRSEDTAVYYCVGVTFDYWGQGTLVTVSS VL: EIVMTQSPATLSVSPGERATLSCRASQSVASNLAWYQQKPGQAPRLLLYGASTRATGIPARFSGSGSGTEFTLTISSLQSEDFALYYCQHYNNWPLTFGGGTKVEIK
T 1/2 [h]: 1.52

Shift focus to the following entry.
The binder listed as H1H6958N2 (antibody, human IgG1, V domains shown, also called H2M6958N2) VH: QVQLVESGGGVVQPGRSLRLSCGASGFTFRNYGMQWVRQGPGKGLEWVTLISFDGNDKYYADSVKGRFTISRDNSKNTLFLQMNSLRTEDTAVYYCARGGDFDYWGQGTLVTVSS VL: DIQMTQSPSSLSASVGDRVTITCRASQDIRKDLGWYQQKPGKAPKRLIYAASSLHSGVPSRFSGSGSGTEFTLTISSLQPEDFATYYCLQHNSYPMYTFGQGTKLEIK shows T 1/2 equal to 1.39
